- TEST_TARGET: human-KOR (Homo sapiens, UniProt P41145)
- EXPERIMENT_NOTES: Calcium mobilization assay, CHO-KOR cells expressing Gαqi5
- Type: cell-based
- Parameters: expressed in transfected cells; gift of Dr. Larry Toll (SRI International); infected with a retrovirus for Gαqi5
- REPORTED_CONDITIONS: antagonist mode, dynorphin A as agonist; Inactive = inactive at 10 μM

{"columns": ["COMPOUND", "KOR pKB (CL95%)"],
 "data": [
  ["C[C@H]1[C@H]2Cc3ccc(O)cc3[C@]1(C)CCN2CCC(=O)N1CCc2ccccc21 [Compound 14]", "Inactive"],
  ["COc1ccc(NC(=O)CCN2CC[C@@]3(C)c4cc(O)ccc4C[C@@H]2[C@@H]3C)cc1 [Compound 13]", "Inactive"]
]}

###

EC50 overview
- TEST_TARGET: recombinant human MOR (Homo sapiens)
- Construct: expressed in transfected cells; gift of Dr. Larry Toll (SRI International); infected with a retrovirus for Gαqi5
- EXPERIMENT_NOTES: Calcium mobilization assay, CHO-MOR cells expressing Gαqi5
- Format: cell-based
Please reply with the bare figure in µM and do not write the unit itself.

{"columns": ["COMPOUND", "TEST_TARGET", "UNIT_SYMBOL", "EC50"],
 "data": [
  ["Cc1ccc(NC(=O)CCN2CC[C@@]3(C)c4cc(O)ccc4C[C@@H]2[C@@H]3C)cc1 [Compound 11]", "recombinant human MOR (Homo sapiens)", "µM", 1.41],
  ["C[C@H]1[C@H]2Cc3ccc(O)cc3[C@]1(C)CCN2CCC(=O)Nc1ccc(C#N)cc1 [Compound 12]", "recombinant human MOR (Homo sapiens)", "µM", 1.02],
  ["C[C@H]1[C@H]2Cc3ccc(O)cc3[C@]1(C)CCN2CCC(=O)Nc1ccc(F)cc1 [Compound 10]", "recombinant human MOR (Homo sapiens)", "µM", 2.14]
]}

EC50 measured on C[C@H]1[C@H]2Cc3ccc(O)cc3[C@]1(C)CCN2CCC(=O)Nc1ccccc1 [LP1, reference compound] = 0.0977

###

- TEST_TARGET: recombinant human DOR (Homo sapiens)
- Construct: supplied by Dr. Eva Varga (University of Arizona); infected with a retrovirus for GαqG66Di5
- EXPERIMENT_NOTES: Calcium mobilization assay, CHO-DOR cells expressing GαqG66Di5
ENDPOINT_NAME: EC50 (µM)
Please reply with the bare figure in µM and do not write the unit itself.

EC50 measured on C[C@H]1[C@H]2Cc3ccc(O)cc3[C@]1(C)CCN2CCC(=O)Nc1ccccc1 [LP1, reference compound] = 1.12

###

- TEST_TARGET: UniProtKB P41145
- EXPERIMENT_NOTES: Radioligand competition binding, [3H]-DPN, HEK293 membranes, KOR
- Set-up: expressed in transfected cells
pKi overview
pKi is defined as minus the log10 of a concentration measured in mol/L.

Examples with their reported pKi follow.
{"columns": ["RECORD_SMILES", "pKi"],
 "data": [
  ["C[C@H]1[C@H]2Cc3ccc(O)cc3[C@]1(C)CCN2CCC(=O)Nc1ccc(C#N)cc1", 6.07],
  ["COc1ccc(NC(=O)CCN2CC[C@@]3(C)c4cc(O)ccc4C[C@@H]2[C@@H]3C)cc1", 5.40],
  ["C[C@H]1[C@H]2Cc3ccc(O)cc3[C@]1(C)CCN2CCC(=O)N(c1ccccc1)c1ccccc1", 6.70],
  ["C[C@H]1[C@H]2Cc3ccc(O)cc3[C@]1(C)CCN2CCC(=O)Nc1ccc(F)cc1", 5.32]
]}

Now take the following molecule into account.
pKi measured on `Cc1ccc(NC(=O)CCN2CC[C@@]3(C)c4cc(O)ccc4C[C@@H]2[C@@H]3C)cc1` = 6.00

###

- TEST_TARGET: rat-DOR (Rattus norvegicus)
- Construct: expressed in transfected cells
- EXPERIMENT_NOTES: Radioligand competition binding, [3H]-DPN, HEK293 membranes, DOR
pKi overview
pKi is defined as minus the log10 of a concentration measured in mol/L.

Examples with their reported pKi follow.
{"columns": ["COMPOUND", "pKi"],
 "data": [
  ["C[C@H]1[C@H]2Cc3ccc(O)cc3[C@]1(C)CCN2CCC(=O)Nc1ccc(F)cc1 [Compound 10]", 6.04],
  ["Cc1ccc(NC(=O)CCN2CC[C@@]3(C)c4cc(O)ccc4C[C@@H]2[C@@H]3C)cc1 [Compound 11]", 6.39],
  ["C[C@H]1[C@H]2Cc3ccc(O)cc3[C@]1(C)CCN2CCC(=O)Nc1ccc(C#N)cc1 [Compound 12]", 6.42]
]}

Now take the following compound into account.
pKi measured on COc1ccc(NC(=O)CCN2CC[C@@]3(C)c4cc(O)ccc4C[C@@H]2[C@@H]3C)cc1 [Compound 13] = 5.96

###

- TEST_TARGET: human-KOR (Homo sapiens)
- EXPERIMENT_NOTES: Radioligand competition binding, [3H]-DPN, HEK293 membranes, KOR
- Parameters: expressed in transfected cells
- REPORTED_CONDITIONS: [3H]-DPN displacement; means ± SEM of three experiments in duplicate; read-out: Ki (μM) ± SEM KOR
ENDPOINT_NAME: Ki (µM)
Please reply with the bare figure in µM and do not write the unit itself.

Examples with their reported Ki follow.
{"columns": ["COMPOUND", "UNIT_SYMBOL", "RESULT_VALUE"],
 "data": [
  ["C[C@H]1[C@H]2Cc3ccc(O)cc3[C@]1(C)CCN2CCC(=O)N1CCc2ccccc21", "µM", 1.6],
  ["C[C@H]1[C@H]2Cc3ccc(O)cc3[C@]1(C)CCN2CCC(=O)Nc1ccccc1 [LP1, reference compound]", "µM", 7.5]
]}

Now take the following compound into account.
Ki measured on `C[C@H]1[C@H]2Cc3ccc(O)cc3[C@]1(C)CCN2CCC(=O)N1CCCc2ccccc21` = 0.2

###

- TEST_TARGET: recombinant human MOR (Homo sapiens)
- Construct: expressed in transfected cells; gift of Dr. Larry Toll (SRI International); infected with a retrovirus for Gαqi5
- EXPERIMENT_NOTES: Calcium mobilization assay, CHO-MOR cells expressing Gαqi5
- Assay type: cell-based
- REPORTED_CONDITIONS: ratio of Emax of ligand to that of the standard
ENDPOINT_NAME: intrinsic activity (α) at MOR
Lab note: jot down the number only; don't add units.

Examples with their reported intrinsic activity (α) at MOR follow.
{"columns": ["COMPOUND", "intrinsic activity (α) at MOR"],
 "data": [
  ["Cc1ccc(NC(=O)CCN2CC[C@@]3(C)c4cc(O)ccc4C[C@@H]2[C@@H]3C)cc1", 0.23],
  ["C[C@H]1[C@H]2Cc3ccc(O)cc3[C@]1(C)CCN2CCC(=O)Nc1ccc(F)cc1", 0.30],
  ["C[C@H]1[C@H]2Cc3ccc(O)cc3[C@]1(C)CCN2CCC(=O)Nc1ccc(C#N)cc1", 0.34]
]}

Now take the following compound into account.
Summary: C[C@H]1[C@H]2Cc3ccc(O)cc3[C@]1(C)CCN2CCC(=O)Nc1ccccc1 [LP1, reference compound] , recombinant human MOR (Homo sapiens), intrinsic activity (α) at MOR = 0.40
